# Assay details: Trial 000015 Part 2: pharmacokinetics after multiple intranasal administrations
# Format: in vivo, human
# Measurement setup: female, human, plasma, inhaled or intranasal, 200 ug, multiple i.n. doses every 3 hours, 200 μg, Dose No. 1; read-out: AUCt Median
*1 amine or outer side, *2 acyl side, *3 side chain or, on linkers, in order; H or OH if unused. Where a SMILES comes first, the peptide text is derived from it. Bridges are numbered along the chain shown (N, C = ends). [ ]: non-standard residue; d: D form. N(4-F-Bzl)Gly = O=C(O)CNCc1ccc(F)cc1; X1 = O=C(CCC[*:2])[*:1]
Readout kind: AUC(0-t)

>>> observed_result("CC[C@H](C)[C@@H]1NC(=O)[C@H](Cc2ccc(O)cc2)NC(=O)CCCSC[C@@H](C(=O)N(CC(=O)N[C@@H](CC(C)C)C(=O)NCC(N)=O)Cc2ccc(F)cc2)NC(=O)[C@H](CC(N)=O)NC(=O)[C@H](CCC(N)=O)NC1=O [merotocin] (YIQNC[N(4-F-Bzl)Gly]LG-NH2; linker N-5 via X1)")
"0.0876 ng·h/mL"

* * *

# Assay details: Trial 000015 Part 3: pharmacokinetics, single intranasal and single intravenous cross-over
# Measurement setup: female, human, plasma, iv, 20 ug, Vz Mean (SD), 20 μg i.v. infusion over 25 minutes, N = 6
*1 amine or outer side, *2 acyl side, *3 side chain or, on linkers, in order; H or OH if unused. Where a SMILES comes first, the peptide text is derived from it. Bridges are numbered along the chain shown (N, C = ends). [ ]: non-standard residue; d: D form. N(4-F-Bzl)Gly = O=C(O)CNCc1ccc(F)cc1; X1 = O=C(CCC[*:2])[*:1]
Readout kind: Vd (L)

>>> observed_result("CC[C@H](C)[C@@H]1NC(=O)[C@H](Cc2ccc(O)cc2)NC(=O)CCCSC[C@@H](C(=O)N(CC(=O)N[C@@H](CC(C)C)C(=O)NCC(N)=O)Cc2ccc(F)cc2)NC(=O)[C@H](CC(N)=O)NC(=O)[C@H](CCC(N)=O)NC1=O [merotocin] (YIQNC[N(4-F-Bzl)Gly]LG-NH2; linker N-5 via X1)")
37.5

* * *

# Assay details: clinical
# Measurement setup: female, human, in vivo, t1/2
*1 amine or outer side, *2 acyl side, *3 side chain or, on linkers, in order; H or OH if unused. Where a SMILES comes first, the peptide text is derived from it. Bridges are numbered along the chain shown (N, C = ends). [ ]: non-standard residue; d: D form. N(4-F-Bzl)Gly = O=C(O)CNCc1ccc(F)cc1; X1 = O=C(CCC[*:2])[*:1]
Readout kind: half-life

>>> observed_result("CC[C@H](C)[C@@H]1NC(=O)[C@H](Cc2ccc(O)cc2)NC(=O)CCCSC[C@@H](C(=O)N(CC(=O)N[C@@H](CC(C)C)C(=O)NCC(N)=O)Cc2ccc(F)cc2)NC(=O)[C@H](CC(N)=O)NC(=O)[C@H](CCC(N)=O)NC1=O [merotocin] (YIQNC[N(4-F-Bzl)Gly]LG-NH2; linker N-5 via X1)")
"25 to 35 min"

* * *

# Assay details: Trial 000015 Part 2: pharmacokinetics after multiple intranasal administrations
# Assay type: in vivo, human
# Measurement setup: female, human, plasma, inhaled or intranasal, 200 ug, multiple i.n. doses every 3 hours, 200 μg, Dose No. 16; read-out: Cmax Median
*1 amine or outer side, *2 acyl side, *3 side chain or, on linkers, in order; H or OH if unused. Where a SMILES comes first, the peptide text is derived from it. Bridges are numbered along the chain shown (N, C = ends). [ ]: non-standard residue; d: D form. N(4-F-Bzl)Gly = O=C(O)CNCc1ccc(F)cc1; X1 = O=C(CCC[*:2])[*:1]
Readout kind: Cmax (ng/mL)

>>> observed_result("CC[C@H](C)[C@@H]1NC(=O)[C@H](Cc2ccc(O)cc2)NC(=O)CCCSC[C@@H](C(=O)N(CC(=O)N[C@@H](CC(C)C)C(=O)NCC(N)=O)Cc2ccc(F)cc2)NC(=O)[C@H](CC(N)=O)NC(=O)[C@H](CCC(N)=O)NC1=O [merotocin] (YIQNC[N(4-F-Bzl)Gly]LG-NH2; linker N-5 via X1)")
0.225

All values here come from patent US20220313774A1.
